# ASSAY INFO: Plasma pharmacokinetics after topical administration, LC-MS/MS
# Format: in vivo, human
# CONDITIONS USED: human, plasma; up to 5 consecutive days of topical treatment; read-out: Systemic exposure (plasma concentration)
QUANTITY NAME: concentration at 5 days

Recorded concentration at 5 days for O=C(Cc1ccc(-c2ccc(OCCN3CCOCC3)cc2)cn1)NCc1ccccc1 , please?
< 1 ng/mL
